All values here come from PubChem BioAssay AID372.

# TGT: Gag-Pol polyprotein (Human immunodeficiency virus type 1 group M subtype B (isolate HXB2))
# MEASUREMENT DESCRIPTION: RNase H inhibition, HIV 1 Gag Pol polyprotein, FRET biochemical assay, screening (AID 372)
# CONDITIONS USED: HIV-1 RT RNase H, FRET RNA/DNA substrate fluorescence; at 10 µM
Out of some 100,000 compounds screened, about 770 (0.77%) were called active. No stated cut-off is given here; in the data, active means inhibition above about 50%; inactive means the rest. This excerpt belongs to a sample that is enriched for actives.
Hi there, use one of these labels in your reply, thanks! active, inactive

# count of solved cases: 3
COc1ccc(C(=O)Nc2ccc3oc(-c4ccc(OC)c(Cl)c4)nc3c2)cc1Cl : inactive
CC(=O)c1ccc(N2CCN(C(=O)c3cc(F)c(F)cc3Cl)CC2)c(F)c1 : inactive
CCSc1nnc(NC(=O)c2cnccn2)s1 : active

# outcome recorded in this test, key = CCc1ccc(C2Nc3ccccc3NC3=C2C(=O)CC(c2ccc(OC)cc2)C3)s1 (stereo unspecified) inactive
